Provenance of the data: patent US20150105252A1

Test system: ryegrass, Italian
experimental-details: Test C preemergence
Assay type: in vivo, Lolium multiflorum
details: preemergence, 31 g ai/ha; visual rating, scale 0 to 100 (0 no effect, 100 complete control), 13 to 15 days
// Ryegrass, Italian plant response rating lookup, one value per entry
measurement-name: Ryegrass, Italian plant response rating

{"input-smiles": "CCCNC(=O)c1cc(CCCl)n(Cc2ccnc(C(F)(F)F)c2)n1", "tested-on": "ryegrass, Italian", "quantitative-result": 5}
{"input-smiles": "CCc1cc(C(=O)NOC(C)C)nn1Cc1ccnc(C(F)(F)F)c1", "tested-on": "ryegrass, Italian", "quantitative-result": 30}
{"input-smiles": "CCc1cc(C(=O)NC2CC2)nn1Cc1ccnc(OC(F)F)c1", "tested-on": "ryegrass, Italian", "quantitative-result": 30}
{"input-smiles": "CCCc1cc(C(=O)NCC)nn1Cc1cc(C(F)(F)F)nn1C", "tested-on": "ryegrass, Italian", "quantitative-result": 5}
{"input-smiles": "CCNC(=O)c1cc(CCCl)n(Cc2ccnc(C(F)(F)F)c2)n1", "tested-on": "ryegrass, Italian", "quantitative-result": 5}

====

System: wheat
experimental-details: Test A postemergence
Assay type: in vivo, Triticum aestivum
details: Postemergence, 125 g ai/ha; 0 to 100 scale, 0 no effect, 100 complete control
Description: […]

{"compound": "CCc1cc(C(=O)NC(C)C)nn1Cc1cc(C(F)(F)F)nn1C(C)C [Compound 210]", "tested-on": "wheat", "Wheat plant response rating": 0}
{"compound": "CCc1cc(C(=O)NCC2CC2)nn1Cc1ccnc(C(F)(F)F)c1 [Compound 199]", "tested-on": "wheat", "Wheat plant response rating": 70}
{"compound": "CCCCc1cc(C(=O)NCCC)nn1Cc1ccnc(C(F)(F)F)c1 [Compound 190]", "tested-on": "wheat", "Wheat plant response rating": 80}
{"compound": "Cc1cc(C(=O)NC(C)C)nn1Cc1ccnc(C(F)(F)F)c1 [Compound 197]", "tested-on": "wheat", "Wheat plant response rating": 0}
{"compound": "CCCNC(=O)c1cc(CC)n(Cc2cc(C(F)(F)F)nn2C(C)C)n1 [Compound 209]", "tested-on": "wheat", "Wheat plant response rating": 0}

====

System: corn
experimental-details: Test A preemergence
Type: in vivo, Zea mays
details: preemergence, 500 g ai/ha, visual injury after approx. 10 days, 0 to 100 scale (0 no effect, 100 complete control)
Excerpt: […]
measurement-name: Corn plant response rating

{"compound": "O=C(NC1CC1)c1cc(Cl)n(Cc2cccc(C(F)(F)F)c2)n1 [Compound 174]", "tested-on": "corn", "quantitative-result": 0}
{"compound": "CCc1cc(C(=O)NOC)nn1Cc1ccnc(C(F)(F)F)c1 [Compound 99]", "tested-on": "corn", "quantitative-result": 90}
{"compound": "CCNC(=O)c1cc(CC)n(Cc2ccnc(C(F)(F)F)c2)n1 [Compound 196]", "tested-on": "corn", "quantitative-result": 90}
{"compound": "CCCCc1cc(C(=O)NCC(F)(F)F)nn1Cc1ccnc(C(F)(F)F)c1 [Compound 148]", "tested-on": "corn", "quantitative-result": 0}
{"compound": "CCc1cc(C(=O)NC2CC2)nn1Cc1cc(C(F)(F)C(F)(F)F)nn1C [Compound 226]", "tested-on": "corn", "quantitative-result": 50}
{"compound": "CCc1cc(C(=O)NCC(F)(F)F)nn1Cc1ccnc(OCC(F)(F)F)c1 [Compound 106]", "tested-on": "corn", "quantitative-result": 30}
{"compound": "CCCNC(=O)c1cc(CCC)n(Cc2cc(C(F)(F)F)nn2C)n1 [Compound 198]", "tested-on": "corn", "quantitative-result": 90}
{"compound": "CCCc1cc(C(=O)Nc2ccc(F)cc2)nn1Cc1cc(C(F)(F)F)nn1C [Compound 150]", "tested-on": "corn", "quantitative-result": 0}
